- testedSystem: T1, Ax1 protein, extracellular domain (human, UniProt P30530 26-451)
- T1 construct: extracellular domain; also called Axl; Ark
- T1 sequence (looked up): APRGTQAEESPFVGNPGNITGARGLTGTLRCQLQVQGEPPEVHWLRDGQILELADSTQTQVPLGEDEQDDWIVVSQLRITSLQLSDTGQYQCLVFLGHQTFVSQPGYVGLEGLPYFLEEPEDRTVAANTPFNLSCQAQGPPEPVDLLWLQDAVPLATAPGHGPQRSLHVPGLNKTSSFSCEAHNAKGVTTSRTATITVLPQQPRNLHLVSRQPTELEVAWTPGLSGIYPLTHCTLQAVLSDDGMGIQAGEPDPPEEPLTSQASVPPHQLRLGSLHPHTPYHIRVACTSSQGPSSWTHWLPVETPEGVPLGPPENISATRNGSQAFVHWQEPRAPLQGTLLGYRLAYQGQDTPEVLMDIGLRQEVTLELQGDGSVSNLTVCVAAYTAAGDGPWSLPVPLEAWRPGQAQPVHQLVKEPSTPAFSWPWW
- procedureSummary: ELISA, mutant diluted 1:3
parameterMeasured: Affinity ELISA CPE mutant ratio (1:3, pH 6.0/7.4)
Just the number, please, no unit after it.

Sample records with Affinity ELISA CPE mutant ratio (1:3, pH 6.0/7.4):
# binder, testResult
measured = [
    ("HC-E102L (antibody, V domains shown, CPE single point mutant) VH: EVQLVQSGAEVKKPGATVKISCKVSGYSFTGHTMNWIRQPPGKGLEWIGLIKPSNGGTSYNQKFKGRVTISADKSISTAYLQWSSLKASDTAMYYCAHGHYLSYFAMDYWGQGTLVTVSS VL: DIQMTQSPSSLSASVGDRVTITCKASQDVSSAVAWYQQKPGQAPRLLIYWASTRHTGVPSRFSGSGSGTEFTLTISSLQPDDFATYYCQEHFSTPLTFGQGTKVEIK", 3.27),
    ("HC-E102V (antibody, V domains shown, CPE single point mutant) VH: EVQLVQSGAEVKKPGATVKISCKVSGYSFTGHTMNWIRQPPGKGLEWIGLIKPSNGGTSYNQKFKGRVTISADKSISTAYLQWSSLKASDTAMYYCAHGHYVSYFAMDYWGQGTLVTVSS VL: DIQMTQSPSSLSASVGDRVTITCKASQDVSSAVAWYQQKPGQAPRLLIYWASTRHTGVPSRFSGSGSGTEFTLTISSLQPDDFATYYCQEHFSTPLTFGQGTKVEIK", 1.93),
    ("HC-S103D (antibody, V domains shown, CPE single point mutant) VH: EVQLVQSGAEVKKPGATVKISCKVSGYSFTGHTMNWIRQPPGKGLEWIGLIKPSNGGTSYNQKFKGRVTISADKSISTAYLQWSSLKASDTAMYYCAHGHYEDYFAMDYWGQGTLVTVSS VL: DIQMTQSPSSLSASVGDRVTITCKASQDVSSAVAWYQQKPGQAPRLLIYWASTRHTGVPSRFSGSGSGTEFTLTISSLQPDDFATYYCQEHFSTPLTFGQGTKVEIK", 4.24),
    ("LC-P095D (antibody, V domains shown, CPE single point mutant) VH: EVQLVQSGAEVKKPGATVKISCKVSGYSFTGHTMNWIRQPPGKGLEWIGLIKPSNGGTSYNQKFKGRVTISADKSISTAYLQWSSLKASDTAMYYCAHGHYESYFAMDYWGQGTLVTVSS VL: DIQMTQSPSSLSASVGDRVTITCKASQDVSSAVAWYQQKPGQAPRLLIYWASTRHTGVPSRFSGSGSGTEFTLTISSLQPDDFATYYCQEHFSTDLTFGQGTKVEIK", 3.95),
    ("LC-P095K (antibody, V domains shown, CPE single point mutant) VH: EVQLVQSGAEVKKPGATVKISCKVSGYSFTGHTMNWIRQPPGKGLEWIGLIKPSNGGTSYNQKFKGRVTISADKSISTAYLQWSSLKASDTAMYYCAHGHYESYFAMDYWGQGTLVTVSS VL: DIQMTQSPSSLSASVGDRVTITCKASQDVSSAVAWYQQKPGQAPRLLIYWASTRHTGVPSRFSGSGSGTEFTLTISSLQPDDFATYYCQEHFSTKLTFGQGTKVEIK", 3.84),
]

**Query** Identify measured Affinity ELISA CPE mutant ratio (1:3, pH 6.0/7.4) corresponding to HC-S059T (antibody, V domains shown, CPE single point mutant) VH: EVQLVQSGAEVKKPGATVKISCKVSGYSFTGHTMNWIRQPPGKGLEWIGLIKPSNGGTTYNQKFKGRVTISADKSISTAYLQWSSLKASDTAMYYCAHGHYESYFAMDYWGQGTLVTVSS VL: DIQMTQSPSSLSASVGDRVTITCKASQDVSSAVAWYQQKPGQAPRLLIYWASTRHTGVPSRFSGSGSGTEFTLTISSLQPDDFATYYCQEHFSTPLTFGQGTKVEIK
**Result** 1.02

**Query** Check the records and state Affinity ELISA CPE mutant ratio (1:3, pH 6.0/7.4) for LC-P095H (antibody, V domains shown, CPE single point mutant) VH: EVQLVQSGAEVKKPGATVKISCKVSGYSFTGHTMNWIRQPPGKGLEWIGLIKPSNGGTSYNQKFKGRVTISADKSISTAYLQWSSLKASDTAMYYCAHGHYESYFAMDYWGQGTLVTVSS VL: DIQMTQSPSSLSASVGDRVTITCKASQDVSSAVAWYQQKPGQAPRLLIYWASTRHTGVPSRFSGSGSGTEFTLTISSLQPDDFATYYCQEHFSTHLTFGQGTKVEIK
**Result** 2.5

**Query** // fetch Affinity ELISA CPE mutant ratio (1:3, pH 6.0/7.4) given entry HC-W110N (antibody, V domains shown) VH: EVQLVQSGAEVKKPGATVKISCKVSGYSFTGHTMNWIRQPPGKGLEWIGLIKPSNGGTSYNQKFKGRVTISADKSISTAYLQWSSLKASDTAMYYCAHGHYESYFAMDYNGQGTLVTVSS VL: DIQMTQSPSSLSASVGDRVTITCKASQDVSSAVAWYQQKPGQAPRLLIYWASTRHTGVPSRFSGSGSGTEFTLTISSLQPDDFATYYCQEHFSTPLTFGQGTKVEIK
**Result** 4.3

**Query** Consider the binder LC-A034N (antibody, V domains shown, CPE single point mutant) VH: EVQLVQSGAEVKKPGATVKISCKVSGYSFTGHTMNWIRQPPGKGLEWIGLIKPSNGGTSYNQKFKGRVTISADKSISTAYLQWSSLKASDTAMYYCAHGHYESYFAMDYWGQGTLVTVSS VL: DIQMTQSPSSLSASVGDRVTITCKASQDVSSAVNWYQQKPGQAPRLLIYWASTRHTGVPSRFSGSGSGTEFTLTISSLQPDDFATYYCQEHFSTPLTFGQGTKVEIK and give its recorded Affinity ELISA CPE mutant ratio (1:3, pH 6.0/7.4).
**Result** 2.63

**Query** Please list Affinity ELISA CPE mutant ratio (1:3, pH 6.0/7.4) recorded for the binder LC-A051N (antibody, V domains shown, CPE single point mutant) VH: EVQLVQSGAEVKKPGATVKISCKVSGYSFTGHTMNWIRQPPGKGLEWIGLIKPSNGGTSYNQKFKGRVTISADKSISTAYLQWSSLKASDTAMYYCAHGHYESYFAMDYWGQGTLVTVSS VL: DIQMTQSPSSLSASVGDRVTITCKASQDVSSAVAWYQQKPGQAPRLLIYWNSTRHTGVPSRFSGSGSGTEFTLTISSLQPDDFATYYCQEHFSTPLTFGQGTKVEIK
**Result** 1.41
